- assay-procedure: chemical genetic growth profiling, strain panel (AID 1159580);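 note: tested at 20 µM; growth read once vehicle control cultures reached saturation at 30 °C; lower values mean less growth of the strain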
- protocol-conditions: S. cerevisiae deletion strains, growth OD, locus YML120C, strain ndi1, stronger effect = lower value
Hit rate of the full screen: of about 5,500 compounds, about 2,000 (36%) were called active. About 18% were inconclusive and are not listed. The list shows a part of the results.
Each record is given yes if its reported normalized growth is strictly below 1. Records at or above 1 are given no.

molecule	group
COc1c2ccoc2c(OC)c2oc(=O)ccc12	yes
O=C(O)c1ccccc1-c1c2cc(Br)c(=O)cc-2oc2[c]([Hg])c(O)c(Br)cc12	no
Nc1ccc(N=Nc2ccccc2)c(N)n1	yes
C[N+]1(C)C2CC(OC(=O)[C@@H](CO)c3ccccc3)CC1C1OC12 (some centres not stated)	yes
Clc1cccc(Cl)c1NC1=NCCN1	yes

Source: PubChem BioAssay AID1159580
